Recorded values, source the C3SDB collision cross section collection.

# RUN_PARAMETERS: [M+Na]+; instrument: TW; calibrated with polyalanine and drug standards
MEASURED_PARAMETER: collision cross section (N2) (Å²)
Hi! Could you send only the number? It should be in Å², unit omitted.

Q. Supply recorded collision cross section (N2) for `C[C@H](CCC(=O)O)[C@H]1CC[C@H]2[C@@H]3[C@H](O)C[C@@H]4C[C@H](O)CC[C@]4(C)[C@H]3C[C@H](O)[C@]12C` here.
A. 195.6

Q. Report collision cross section (N2) for COC(=O)C[C@H]1C(C)(C)[C@@H](O)[C@@H]2CC3=C4CC(O)O[C@@H](c5ccoc5)[C@]4(C)CCC3[C@@]1(C)C2=O (stereo partly drawn) [3,16-DIDEOXYMEXICANOLIDE-3beta-DIOL]
A. 202.8

Q. State, in one line, measured collision cross section (N2) of CCCCCCCCCCCCCCCCCCOCC(O)CO (stereo not drawn)
A. 202.8
